# Tested on: WNK4;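 note: kd values determined as follow-up on hits from a single-replicate KINOMEscan panel screen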
Measurement Type: Kd

For WNK4, give Kd of the listed molecule: Cc1ccc(-c2cc(-c3c[nH]nc3-c3ccccn3)ccn2)cc1
> 10 µM

###

# Tested on: TAOK3
# Measurement Conditions: concentration: 1 μM, replicates: in singlicate; n = 1
// reported %Inh for each item listed
Write your answer as a measured quantity: the number, then the unit.

> print(dat)
                                   compound  measurement.type  result
1  Fc1cc(Cl)ccc1Nc1ccnc2cc(I)ccc12 [GW551191]              %Inh      0%

Report %Inh for Cc1csc(-c2nc(Nc3ccncc3)c3ccccc3n2)n1 [GW869640]
29%

Recall and state the measured %Inh for Nc1ncnc2[nH]c(-c3ccccc3)nc12 [AH5015] .
9%

For the compound Cn1ccc2ncnc(Oc3ccc(NC(=O)Nc4ccccc4)cc3)c21 , give its reported %Inh.
0%

Report measured %Inh; entry is CS(=O)(=O)c1ccc(-c2c(-c3ncn[nH]3)sc(N3CCOCC3)c2C#N)cc1
0%

Consider the compound Cc1ccc(NC(=O)Nc2cccc(Cl)c2)cc1-c1ccc(C(=O)Nc2ccncc2)cc1 [GSK1398468] . State its measured %Inh.
0%

###

# System: CAMKK2
# Measurement Conditions: concentration: 1 μM, replicates: in singlicate; n = 1
Measurement Type: %Inh (%)
Give a bare numeral; the unit % is implied.

Below, 5 compounds whose answers are already recorded.
> print(dat)
                                   compound  result.number
1  Cl.O=C(Nc1cccc(-c2nn3ncccc3c2-c2ccnc(Nc3cccnc3)n2)c1)c1c(F)cccc1F [GSK312879]              0
2  Cl.c1ccc(-c2n[nH]cc2-c2ccnc(-c3ccc(CN4CCOCC4)cc3)c2)nc1 [GW776245]             19
3  COc1ccccc1CNC(=O)c1cc(C(=O)c2ccccc2C)c[nH]1 [GSK364507]              5
4  Cc1cccc(-c2nc(Nc3ccncc3)c3ccccc3n2)n1 [GW855857]              7
5  Fc1cc(Cl)ccc1Nc1ccnc2cc(-c3ccc(CN4CCCCC4)o3)ccc12 [GW560116]             22

Note down %Inh recorded for C[C@@H]1CCCCN1c1cc(-c2ccc3c(N)n[nH]c3c2)nc(N)n1 [GSK2258759]
26

Read the entry CCn1c(-c2cccnc2O)nc2cnccc21 [SB-736715] and write its reported %Inh.
0

###

# Tested on: SBK1
# Measurement Conditions: concentration: 1 μM, replicates: in singlicate; n = 1
%Inh values by entry
The figure you give is taken to be in %; do not add the unit.

> print(dat)
                                   compound  result.number
1  O=C(Nc1n[nH]c2nc(-c3nccs3)c(Br)cc12)C1CCCC1             12
2  COc1ccccc1CNC(=O)c1cc(C(=O)c2ccccc2C)c[nH]1             16
3  Cc1nnc(-c2ccc3occ(-c4ccc(S(C)=O)cc4)c3c2)[nH]1 (stereo not drawn)              0
4  COc1ccc(C2=C(Nc3cccc(C(=O)O)c3)C(=O)NC2=O)cc1             35
5  O=C(Nc1ccc2c(c1)OCO2)NC1CCN(c2ccnc(Nc3ccc(F)cc3)n2)C1 (stereo not drawn)             13
6      Cc1csc(-c2nc(Nc3ccncc3)c3ccccc3n2)n1             51

Using known records, supply %Inh for Cl.c1ccc(-c2n[nH]cc2-c2ccnc(-c3ccc(CN4CCOCC4)cc3)c2)nc1
0

Give the value of %Inh reported for the following: CCn1c(-c2ccccn2)nc2cnccc21
0

Determine from records and report %Inh for Cn1ccc2ncnc(Oc3ccc(NC(=O)Nc4ccccc4)cc3)c21
0

###

# Test system: AKT2
# Measurement Conditions: concentration: 1 μM, replicates: in singlicate; n = 1
Below: a set of entries, each annotated with reported %Inh.

Worked cases, %Inh given:
> print(dat)
                                 cpd.smiles  result
1  Cc1c(Cn2ccn3c(=O)cc(N4CCOCC4)nc23)cccc1C(F)(F)F     19%
2  Cl.NC(=O)c1cccc(Nc2nccc(Nc3ccc(Oc4cccc(Cl)c4)c(Cl)c3)n2)c1      8%
3  Cn1ccc2ncnc(Oc3ccc(Nc4nc5ccccc5[nH]4)cc3)c21     16%

Field: next compound
Hello, please tell me recorded %Inh for this one: Cc1cccc(-c2nc(-c3ccc(S(C)(=O)=O)cc3)sc2-c2ccnc(NCCc3ccccc3)c2)c1
6%

###

%Inh by entry:
# System: NEK6
# Measurement Conditions: concentration: 1 μM, replicates: in singlicate; n = 1
Write it as a number; the unit % goes unstated.

Guide cases for %Inh, answers given:
> print(dat)
                                 cpd.smiles  measurement.type  result.number
1  Cc1cc(N2Cc3ccccc3C2)nc(Nc2ccc(S(=O)(=O)N3CCOCC3)cc2)n1.Cl              %Inh              0
2    Fc1cccc(COc2nnc(-c3ccc4c(c3)CCO4)o2)c1              %Inh              0
3  Clc1cc(Cl)cc(Nc2ccnc(Nc3cc(Cl)cc(Cl)c3)n2)c1              %Inh              0
4  O=C(Nc1n[nH]c2cc(-c3cccc(F)c3F)ccc12)C1CC1              %Inh              0
5                     NC(=O)c1nnc2ccccc2c1N              %Inh             10

Return the recorded %Inh value; entry: COC(=O)c1c(-c2ccccc2)c2cc(OC)ccc2c(=O)n1Cc1ccccc1
0

###

# Test system: BMPR1A
# Measurement Conditions: concentration: 1 μM, replicates: in singlicate; n = 1
# %Inh annotations
Just the number in %, nothing appended.

# annotated cases, reported %Inh shown
> print(dat)
                                   compound  measurement.type  unit.spec  result.number
1  COc1ccc(C2=C(Nc3cccc(C(=O)O)c3)C(=O)NC2=O)cc1 [SB-390765]              %Inh          %             13
2  COc1cc(Nc2nccc(N3CCC(NC(=O)Nc4cc(C)ccc4C)C3)n2)cc(OC)c1OC (stereo not shown) [GSK1379762]              %Inh          %              0
3  COc1ccc(Nc2nccc(NCCNC(=O)Nc3ccccc3F)n2)cc1 [GSK1379901]              %Inh          %              0

Proceeding to the next compound to report its %Inh.
Output measured %Inh for this item: Fc1cc(Cl)ccc1Nc1ccnc2cc(-c3ccc(CN4CCCCC4)o3)ccc12 [GW560116]
0

###

# Test system: BRSK1
# Measurement Conditions: concentration: 1 μM, replicates: in singlicate; n = 1
Measurement Type: %Inh

// below: answered compounds
> print(dat)
                                   compound  result
1           Fc1cc(Cl)ccc1Nc1ccnc2cc(I)ccc12      2%
2  COc1cc(Nc2nccc(N3CCC(NC(=O)Nc4cc(C)ccc4C)C3)n2)cc(OC)c1OC (stereo not drawn)      0%
3  CCCc1ccc(S(=O)(=O)NC2CCN(c3ccnc(Nc4ccc(F)cc4)n3)C2)cc1 (stereo not drawn)      0%

# return %Inh for O=S(=O)(c1ccc(-c2ccnc3[nH]ccc23)cc1)N1CCCC1 , test system: BRSK1
0%

Find %Inh for Cn1ccc2ncnc(Oc3ccc(Nc4nc5ccccc5[nH]4)cc3)c21 on BRSK1 and write it down.
0%

State the measured %Inh (BRSK1) of COc1ccccc1-c1ccc2c(NC(=O)C3CC3)n[nH]c2n1
0%

Tell me %Inh of Cc1ccc(NC(=O)Nc2cccc(Cl)c2)cc1-c1ccc(C(=O)Nc2ccncc2)cc1 when tested on BRSK1.
100%

Fill in: %Inh on BRSK1, entry O=C1NC(=O)C(N2CCc3ccccc32)=C1c1ccccc1Cl
12%

Find the measured %Inh of O=C(Nc1n[nH]c2cc(-c3cccc(F)c3F)ccc12)C1CC1 with BRSK1 as test system.
54%

###

# Tested on: LIMK1
# Measurement Conditions: concentration: 1 μM, replicates: in singlicate; n = 1
# key: entry, value: %Inh
Entry rule: numbers only, all in %.

Look over these answered cases.
> print(dat)
                                   molecule  unit.spec  result.number
1  Cc1ccc(NC(=O)Nc2cc(C(C)(C)C)nn2-c2ccccc2)cc1          %              5
2  Cc1cc(N2Cc3ccccc3C2)nc(Nc2ccc(S(=O)(=O)N3CCOCC3)cc2)n1.Cl          %              0

Moving on to another molecule below.
Given the molecule COc1cccc(-c2cc(-c3c[nH]nc3-c3ccccn3)ccn2)c1 , write its reported %Inh.
0
